I'd be grateful if you could share measured viability, T/C for these entries.
system: 379773-124-R-J2-PDC spheroid viability; test: Anticancer human tumor 379773-124-R-J2-PDC patient-derived endometrial carcinoma cell line growth inhibition [POLQ]; conditions: second compound 0.1 µM; first compound 0.316 µM; stronger effect = lower value; spheroids with HUVEC and MSC
Write the number in % without appending the unit.

q: Hello, I am looking for reported viability, T/C with 379773-124-R-J2-PDC spheroid viability for Nc1ccn(C2OC(CO)C(O)C2(F)F)c(=O)n1 (stereo not given) + Cc1cccc(N(C)C(=O)C2C(O)CCN2c2nc(C)cc(C(F)(F)F)c2C#N)c1 . Could you help?
a: 10.4

q: Hello, I am looking for reported viability, T/C with 379773-124-R-J2-PDC spheroid viability for COc1cc(C2c3cc4c(cc3C(OC3OC5COC(C)OC5C(O)C3O)C3COC(=O)C23)OCO4)cc(OC)c1O (stereo not given) + Nc1ccc(C#CCN(C(=O)Cc2ncc(C(F)(F)F)cc2C(F)(F)F)c2ccc(F)cc2)nn1 . Could you help?
a: 90

q: Hello, I am looking for reported viability, T/C with 379773-124-R-J2-PDC spheroid viability for O=c1[nH]cc(F)c(=O)[nH]1 + COC1C(OC(N)=O)C(O)C(Oc2ccc3c(O)c(NC(=O)c4ccc(O)c(CC=C(C)C)c4)c(=O)oc3c2C)OC1(C)C . Could you help?
a: 81.8

q: Hello, I am looking for reported viability, T/C with 379773-124-R-J2-PDC spheroid viability for C#Cc1c(F)ccc2cc(O)cc(-c3ncc4c(N5CC6CCC(C5)N6)nc(OCC56CCCN5CC(F)C6)nc4c3F)c12 (stereo not given) + Cc1cccc(N(C)C(=O)C2C(O)CCN2c2nc(C)cc(C(F)(F)F)c2C#N)c1 . Could you help?
a: 85.8

q: Hello, I am looking for reported viability, T/C with 379773-124-R-J2-PDC spheroid viability for COc1cccc2c1C(=O)c1c(O)c3c(c(O)c1C2=O)CC(O)(C(=O)CO)CC3OC1CC(N)C(O)C(C)O1 (stereo not given) + Nc1ccc(C#CCN(C(=O)Cc2ncc(C(F)(F)F)cc2C(F)(F)F)c2ccc(F)cc2)nn1 . Could you help?
a: 15.2

====

tested on: 379773-124-R-J2-PDC spheroid viability; assay: Anticancer human tumor 379773-124-R-J2-PDC cell line growth inhibition [POLQ]; details: second compound 10 µM; first compound 1 µM; stronger effect = lower value; spheroids with HUVEC and MSC;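 also: spheroids exposed to drugs for seven days before readout; percent viability relative to DMSO vehicle control taken as 100%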
property: viability, T/C (%)
Write the number in % without appending the unit.

q: Item under review: COc1cccc2c1C(=O)c1c(O)c3c(c(O)c1C2=O)CC(O)(C(=O)CO)CC3OC1CC(N)C(O)C(C)O1 (configuration not stated) + Nc1ccc(C#CCN(C(=O)Cc2ncc(C(F)(F)F)cc2C(F)(F)F)c2ccc(F)cc2)nn1 . Reported viability, T/C?
a: 9.24

q: Item under review: CC1COCCN1c1cc(-c2ccnn2C)c2ccnc(-c3ccn[nH]3)c2n1 (configuration not stated) + COC1C(OC(N)=O)C(O)C(Oc2ccc3c(O)c(NC(=O)c4ccc(O)c(CC=C(C)C)c4)c(=O)oc3c2C)OC1(C)C . Reported viability, T/C?
a: 7.51

q: Item under review: COc1ccc([C@@H](O)c2cc(-c3ncnc4cc(N5CCOCC5)ccc34)c(F)cc2Cl)nn1 + COC1C(OC(N)=O)C(O)C(Oc2ccc3c(O)c(NC(=O)c4ccc(O)c(CC=C(C)C)c4)c(=O)oc3c2C)OC1(C)C . Reported viability, T/C?
a: 80.1

q: Item under review: CCc1cc2c(N3CCc4c(cc(Cn5ccnc5)cc4-c4cn(C)nc4C(F)(F)F)C3=O)cc(C)nc2c(OC)n1 + COC1C(OC(N)=O)C(O)C(Oc2ccc3c(O)c(NC(=O)c4ccc(O)c(CC=C(C)C)c4)c(=O)oc3c2C)OC1(C)C . Reported viability, T/C?
a: 55.7

q: Item under review: CCc1cc2c(N3CCc4c(cc(Cn5ccnc5)cc4-c4cn(C)nc4C(F)(F)F)C3=O)ccnc2c(OC)n1 + COC1C(OC(N)=O)C(O)C(Oc2ccc3c(O)c(NC(=O)c4ccc(O)c(CC=C(C)C)c4)c(=O)oc3c2C)OC1(C)C . Reported viability, T/C?
a: 63.8

q: Item under review: CC1COCCN1c1cc(-c2ccnn2C)c2ccnc(-c3ccn[nH]3)c2n1 (configuration not stated) + Cc1cccc(N(C)C(=O)C2C(O)CCN2c2nc(C)cc(C(F)(F)F)c2C#N)c1 . Reported viability, T/C?
a: 9.57

q: Item under review: CC1COCCN1c1cc(C2(O)CC3CCC(C2)O3)c2cnn(-c3ccn[nH]3)c2n1 (configuration not stated) + COC1C(OC(N)=O)C(O)C(Oc2ccc3c(O)c(NC(=O)c4ccc(O)c(CC=C(C)C)c4)c(=O)oc3c2C)OC1(C)C . Reported viability, T/C?
a: 9.86

q: Item under review: O=c1[nH]cc(F)c(=O)[nH]1 + COC1C(OC(N)=O)C(O)C(Oc2ccc3c(O)c(NC(=O)c4ccc(O)c(CC=C(C)C)c4)c(=O)oc3c2C)OC1(C)C . Reported viability, T/C?
a: 71

q: Item under review: C#Cc1c(F)ccc2cc(O)cc(-c3ncc4c(N5CC6CCC(C5)N6)nc(OCC56CCCN5CC(F)C6)nc4c3F)c12 (configuration not stated) + COC1C(OC(N)=O)C(O)C(Oc2ccc3c(O)c(NC(=O)c4ccc(O)c(CC=C(C)C)c4)c(=O)oc3c2C)OC1(C)C . Reported viability, T/C?
a: 79.4

q: Item under review: CCc1cc2c(N3CCc4c(cc(Cn5ccnc5)cc4-c4cn(C)nc4C(F)(F)F)C3=O)ccnc2c(OC)n1 + Nc1ccc(C#CCN(C(=O)Cc2ncc(C(F)(F)F)cc2C(F)(F)F)c2ccc(F)cc2)nn1 . Reported viability, T/C?
a: 67.5

q: Item under review: O=C(Nc1ccc(O)c(NS(=O)(=O)c2ccc(F)cc2)c1)c1ccc(-c2ccccc2)cc1 + COC1C(OC(N)=O)C(O)C(Oc2ccc3c(O)c(NC(=O)c4ccc(O)c(CC=C(C)C)c4)c(=O)oc3c2C)OC1(C)C . Reported viability, T/C?
a: 80.4

q: Item under review: CCc1cc2c(N3CCc4c(cc(Cn5ccnc5)cc4-c4cn(C)nc4C(F)(F)F)C3=O)cc(C)nc2c(OC)n1 + Cc1cccc(N(C)C(=O)C2C(O)CCN2c2nc(C)cc(C(F)(F)F)c2C#N)c1 . Reported viability, T/C?
a: 49.2
